# TARGET OR TEST SYSTEM: RGS4 (Homo sapiens (Human), UniProt P49798)
# Sequence (P49798 whole entry, looked up): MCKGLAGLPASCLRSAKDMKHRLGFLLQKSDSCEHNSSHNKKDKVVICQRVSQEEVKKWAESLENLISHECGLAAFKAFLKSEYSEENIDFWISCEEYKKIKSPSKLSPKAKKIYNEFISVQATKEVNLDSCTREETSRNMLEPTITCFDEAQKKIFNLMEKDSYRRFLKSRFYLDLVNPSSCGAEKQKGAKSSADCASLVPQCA
# ASSAY COMMENT: FCPIA: Gαo binding to RGS4
# SETTINGS: Table 3
OBSERVATION TYPE: RGS4 Hill Slope

Please review the following examples before continuing.
{"MOLECULAR STRING": "O=c1sn(-c2ccc(Cl)cc2)c(=O)n1Cc1ccc(F)cc1", "RGS4 Hill Slope": "−1.66"}
{"MOLECULAR STRING": "CCCCn1sc(=O)n(CC(C)C)c1=O", "RGS4 Hill Slope": "−0.87"}

a: Cc1cccc(-n2sc(=O)n(Cc3ccccc3)c2=O)c1
b: Cc1ccc(-n2sc(=O)n(Cc3ccccc3)c2=O)cc1
Data request: Lab note: record which item had the higher RGS4 Hill Slope, a or b . Your answer should be the label of the entry you select.
Data returned: a
(a: −1.13, b: −3.63)
